# STUDY TARGET: human farnesyl transferase (Homo sapiens, UniProt P49354+P49356)
# Construct: human farnesyl transferase purified from THP1 cell cultures; endogenous in cells; host or cells: THP1 cell cultures (enzyme purified from the cells)
# ASSAY DETAILS: inhibition of farnesyl transferase ((3H) farnesyl transfer from (3H) FPP to p21 H-ras)
# Type: biochemical
# MEASUREMENT PARAMETERS: human farnesyl transferase purified from THP1 cell cultures; p21 H-ras substrate; 20 minutes at 37° C.; 9 concentrations; read-out: in vitro inhibitory activity IC50
Below, each of the compounds is paired with its reported pIC50 value.
A value of pIC50 is the negative decimal logarithm of a concentration given in moles per litre.

{"COMPOUND": "C=C(C(=O)N1C[C@H]2[C@@]3(c4ccccc4)CC[C@H](c4ccccc43)[C@@]2(C(=O)NC(C#N)c2ccccc2)C1)c1ccccc1OC (stereo partly shown)", "QUANTITATIVE READOUT": 6.60}
{"COMPOUND": "COc1ccccc1CC(=O)N1C[C@H]2[C@@]3(c4ccccc4)CC[C@H](c4ccccc43)[C@@]2(NC(=O)C(N)CCSC)C1 (stereo partly shown)", "QUANTITATIVE READOUT": 5.06}
{"COMPOUND": "C=C(C(=O)N1C[C@H]2[C@@]3(c4ccccc4)CC[C@H](c4ccccc43)[C@@]2(C(=O)NCc2ccco2)C1)c1ccccc1OC", "QUANTITATIVE READOUT": 6.37}

May I ask what pIC50 has been recorded for CCOC(=O)CC(=O)N[C@]12CN(C(=O)Cc3ccccc3OC)C[C@H]1[C@@]1(c3ccccc3)CC[C@@H]2c2ccccc21 (relative stereo) ? 5.05

Give its pIC50 value. Item: "C=C(C(=O)N1C[C@H]2[C@@]3(c4ccccc4)CC[C@H](c4ccccc43)[C@@]2(C(=O)NC(C)(C)c2ccccc2)C1)c1ccccc1OC" 5.31

Field request: pIC50 | item: C=Cc1ccc2c(c1)[C@]1(c3ccccc3)CC[C@H]2[C@@]2(C(=O)O)CN(C(=O)Cc3ccccc3OC)C[C@@H]12 (relative stereo) 5.50

Looking for the measured pIC50 of O=C(Cc1cccc2c1OCCC2)N1C[C@H]2[C@@]3(c4ccccc4)CC[C@H](c4ccccc43)[C@@]2(C(=O)O)C1 (relative stereo) , can you help? 5.44

----------
# STUDY TARGET: human farnesyl transferase (Homo sapiens, UniProt P49354+P49356)
# Construct: human farnesyl transferase purified from THP1 cell cultures; endogenous in cells; host or cells: THP1 cell cultures (enzyme purified from the cells)
# ASSAY DETAILS: inhibition of farnesyl transferase ((3H) farnesyl transfer from (3H) FPP to p21 H-ras)
# Type: biochemical
# MEASUREMENT PARAMETERS: human farnesyl transferase purified from THP1 cell cultures; p21 H-ras substrate; 20 minutes at 37° C.; 9 concentrations; read-out: in vitro inhibitory activity IC50
# Procedure: Farnesyl transferase activity is determined by the amount of (^3 H) farnesyl transferred from (^3 H) farnesylpyrophosphate [(^3 H) FPP] to the p21 H-ras protein. […] Reaction is initiated by adding approximately 5 ng of human farnesyl transferase purified from THP1 cell cultures. […] The membranes are dried in a microwave oven, then impregnated with scintillation medium by melting of Meltilex® (Pharmacia) under hot air, and lastly counted in cpm in a b-Plate counter® (LKB). […]
We label by threshold. Values of IC50 strictly beneath 2000 nM are Satisfied. Values of 2000 nM and up are Not satisfied.

{"MOLECULE": "O=C(Cc1c[nH]c2ccc(Br)cc12)N1C[C@@H]2[C@]3(c4ccccc4)CC[C@@H](c4ccccc43)[C@]2(C(=O)O)C1 (relative stereo) [Example 35]", "CLASS LABEL": "Not satisfied"}
{"MOLECULE": "C=C(C(=O)N1C[C@H]2[C@@]3(c4ccccc4)CC[C@H](c4ccccc43)[C@@]2(C(=O)NCc2ccc(C(F)(F)F)cc2)C1)c1ccccc1OC [Example 92]", "CLASS LABEL": "Not satisfied"}
{"MOLECULE": "COc1ccccc1CC(=O)N1C[C@H]2[C@@]3(c4ccccc4)CC[C@H](c4ccccc43)[C@@]2(CP(=O)(O)O)C1 (relative stereo) [Example 23]", "CLASS LABEL": "Not satisfied"}
{"MOLECULE": "C=C(C(=O)N1C[C@H]2[C@@]3(c4ccccc4)CC[C@H](c4ccccc43)[C@@]2(C(=O)NC2CCc3ccccc32)C1)c1ccccc1OC (stereo partly drawn) [Example 84]", "CLASS LABEL": "Satisfied"}
{"MOLECULE": "C=C(C(=O)N1C[C@H]2[C@@]3(c4ccccc4)CC[C@H](c4ccccc43)[C@@]2(C(=O)NC2CCSc3ccccc32)C1)c1ccccc1OC (stereo partly drawn) [Example 88]", "CLASS LABEL": "Not satisfied"}

Does this molecule meet the criterion IC50 < 2000 nM? C=C(C(=O)N1C[C@H]2[C@@]3(c4ccccc4)CC[C@H](c4ccccc43)[C@@]2(C(=O)N[C@H](C(=O)O)c2ccccc2)C1)c1ccccc1OC [Example 81] Satisfied
